- Method description: Her2 expression decrease, cell viability multiplex – SKBR3 breast tumor cells, AlphaScreen, ATP viability, primary screen (AID 461);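 further: percent of carrier control wells set as 100% viability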
- Run conditions: SKBR3 Her2 protein level, 18-24 h, measured here: SKBR3 viability, ATP luminescence, at 10 µM
Measured property: viability (%)
Unit % implied. Number only.

Worked examples, 6 compounds total:
Looking up `CCOC(=O)N1CCN(C(=O)c2ccc(CS(=O)(=O)c3c(Cl)cccc3Cl)o2)CC1` , I found its viability recorded as 114

Looking up `O=C(Cc1cccs1)Nc1ccccc1NC(=O)Cc1cccs1` , I found its viability recorded as 81

Looking up `O=C(Nc1ccccc1)c1cnc2n(c1=O)CCS2` , I found its viability recorded as 92.5

Looking up `Cc1ccc(-n2ncc3c(=O)[nH]c(SC(C)C)nc32)cc1` , I found its viability recorded as 93

Looking up COc1ccc(CCNC(=O)C2(C)CCC(=O)N2Cc2ccc3c(c2)OCO3)cc1OC (stereo not given) , I found its viability recorded as 77.5

Looking up `Cc1nnc2n(-c3ccc(Cl)cc3)c(=O)c3c4c(sc3n12)CN(C)CC4` , I found its viability recorded as 84

Next:
Looking up `CC1(C)CC(=O)c2cnc(NC(=O)CCc3ccccc3)nc2C1` , I found its viability recorded as 93

Looking up COc1ccc(C2C(C(C)=O)=C(C)N=c3s/c(=C/c4ccc5c(c4)OCO5)c(=O)n32)cc1 (stereo not given) , I found its viability recorded as 85

Looking up CC1CCC(NC(=O)C2(C)CCC(=O)N2Cc2cccnc2)CC1 (stereo not given) , I found its viability recorded as 97

Looking up `CC(=O)N(C(C)=O)c1ncc2c([nH]c3ccccc32)c1C#N` , I found its viability recorded as 106
